# PROCEDURE DETAILS: Minimum concentration of 2-hydroxypropyl-B-cyclodextrin for complexation (assay)
# Format: physicochemical
# CONDITION PARAMETERS: 0.188 mg/mL; 2.5% cyclodextrin; molar ratio 41.9
EXPERIMENTAL ENDPOINT: Assay (%)

COMPOUND: CCCC1O[C@@H]2C[C@H]3[C@@H]4CCC5=CC(=O)C=C[C@]5(C)[C@H]4[C@@H](O)C[C@]3(C)[C@]2(C(=O)CO)O1 (stereo partly shown) [Budesonide]
EXPERIMENTAL ENDPOINT: Assay
OBSERVED RESULT: 95.7

---

# PROCEDURE DETAILS: Minimum concentration of 2-hydroxypropyl-B-cyclodextrin for complexation (assay)
# Assay type: physicochemical
# CONDITION PARAMETERS: 0.188 mg/mL; 2.0% cyclodextrin; molar ratio 33.6
EXPERIMENTAL ENDPOINT: Assay (%)

MOLECULE: CCCC1O[C@@H]2C[C@H]3[C@@H]4CCC5=CC(=O)C=C[C@]5(C)[C@H]4[C@@H](O)C[C@]3(C)[C@]2(C(=O)CO)O1 (stereo partly shown) [Budesonide]
EXPERIMENTAL ENDPOINT: Assay
OBSERVED RESULT: 95.5

---

# PROCEDURE DETAILS: Minimum concentration of 2-hydroxypropyl-B-cyclodextrin for complexation (assay)
# Type: physicochemical
# CONDITION PARAMETERS: 0.188 mg/mL; 0.5% cyclodextrin; molar ratio 8.4
EXPERIMENTAL ENDPOINT: Assay (%)

COMPOUND: CCCC1O[C@@H]2C[C@H]3[C@@H]4CCC5=CC(=O)C=C[C@]5(C)[C@H]4[C@@H](O)C[C@]3(C)[C@]2(C(=O)CO)O1 (stereo partly shown) [Budesonide]
OBSERVED RESULT: 75.9

---

# PROCEDURE DETAILS: Minimum concentration of 2-hydroxypropyl-B-cyclodextrin for complexation (assay)
# Format: physicochemical
# CONDITION PARAMETERS: 0.188 mg/mL; 1.5% cyclodextrin; molar ratio 25.2
# Method: Studies were conducted to determine the minimum concentration of 2-Hy-B-cyclodextrin required to achieve 100% budesonide complexation. […] We conducted studies to evaluate the efficiency of Budesonide-cyclodextrin complexation using a complexation solution of high ionic strength and using purified water. • Alternative Salts or Complexation: The ionic strength of the Buffer solution was calculated to be approximately 508 mol/m^−3. […]

MOLECULE: CCCC1O[C@@H]2C[C@H]3[C@@H]4CCC5=CC(=O)C=C[C@]5(C)[C@H]4[C@@H](O)C[C@]3(C)[C@]2(C(=O)CO)O1 (stereo partly shown) [Budesonide]
VALUE UNITS: %
Assay: 91.5

The measured values listed here are drawn from patent US20150202308A1.
